Where do the numbers come from? From patent US20220193132A1.

biological target: T1, recombinant human wild type EGFR protein (extracellular domain), native (human, UniProt P00533 25-645); assay: ELISA Exp 2, purified mAb 1 ug/ml;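 note: ELISA of purified mAb binding to plate-coated antigen, native or heat/DTT-denatured, with pNPP substrate developed for 30 min and incubations at room temperature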
T1 construct: also called wt EGFR; EGFR WT
ELISA absorbance 405 nm by entry:
Numbers only; they are read as A405.

Here are 2 binders together with their reported answers.
[
  {
    "binder": "F263-4E11 (antibody, V domains shown, Mouse hybridoma mAb) VH: DVQLQESGPGLVKPSQSLSLTCTVTGYSITSDYAWNWIRQFPGNKLEWMGYIGYNGRTSYNPSLKSRISITRDTSKNQFFLQLNYVTTEDTATFYCARLGRGFAYWGQGTLVTVSA VL: DILMTQSPSSMSVSLGDTVSITCHASQGINSNIGWLLQKPGKSFKGLIYHGTNLEDGVPSRFSGSGSGTDYSLTISSLESEDFADYYCVQYAQFPYTFGGGTKLEIK",
    "quantitative.readout": 1.7
  },
  {
    "binder": "F266-11B1 (antibody, V domains shown, Mouse hybridoma mAb) VH: QIQLVQSGPELKKPGETVKISCKASGYTFTTAGMQWVKKMPGKGFKWIGWINTHSGDPKYAEDFKGRFAFSLETYASTAYLQISNLKNEDTASYFCARTHIYDGYNYAMDYWGQGTSVTVSS VL: DVVMTQTPLSLPVSLGDQASISCRSSQSLVYSNGNTYLHWYLQKPGQSPKLLIYKVSNRFSGVPDRFSGSGSGTDFTLKISRVEAEDLGVYFCSQSTHVPFTFGSGTKLEIK",
    "quantitative.readout": 0.002
  }
]

Kindly review the next binder as well.
Name the recorded ELISA absorbance 405 nm for F265-9C9 (antibody, V domains shown, Mouse hybridoma mAb) VH: QVQLQQPGAELVKPGASVKLSCKASGYTFTSYWMHWVKQRPGQDLEWIGEIDPSDSYTNYNQKFKGKATLTVDKSSSTAYIQLSSLTSEDSALYYCARFDFAYWGQGTLVTVSA VL: EIVLTQSPTLMAASPGEKVTITCSVSSSISSSNLHWYQQKSETSPKPWIYDTSNLASGVPIRFSGSGSGTSYSLTISSVEAEDAATYYCQQWSSYPLTFGSGTKLEIK . 0.038
